target: SARS-CoV-2 receptor-binding domain (RBD), wild type (SARS-CoV-2, UniProt P0DTC2 331-527); experiment: BLI
Reported values of Kd for individual entries
Give a bare numeral; the unit nM is implied.

Binder	Units Of Measure	Kd
WNbFc 2 (Fc fusion) QVQLQESGGGLVQPGGSLRLSCAVSGFTLDYYAIGWFRQAPGKEREGVSCISSSGGNTKYADSVKGRFTASRDNAKNTFYLQMNSLKPEDTAVYYCAAIAATYYSGSYYFQCPHDGMDYWGKGTQVTVSS	nM	0.59
WNbFc 36 (Fc fusion) QVQLQESGGGLVQPGGSLRLSCAVSGFTLDYYAIGWFRQAPGKEREGVSCISNSGGNTKYADSVKGRFTTSVDNAQNTVYLLMNSLEPEDTAVYYCAAIAATYYSGTYYYQCPHYGMDYWGKGTQVTVSS	nM	0.61
WNbFc 15 (Fc fusion) QVQLQESGGGLVQPGGSLRLSCAASGFTFSSYLMGWFRQVPGKGLEWVSGIYSDGGTYYADSVKGRFTISRDNAKNTVYLQMNSLKPEDTAVYYCATDRMEGSSWPERDFGSWGQGTQVTVSS	nM	0.44

Turning now to a further binder:
// field: Kd; key: WNbFc 7 (Fc fusion) QVQLQESGGGLVQPGGSLRLSCAAPGFTFSSYAMGWFRQVPGKGLEWVSGIYSDGSTYYADSVKGRFTISRDNAKNTVYLQMNSLKPEDTAVYYCAKDRLEGSSWPERDFGSWGQGTQVTVSS ; value = 0.7
